Biological target: Peroxisome proliferator-activated receptor gamma (Homo sapiens) (UniProt P37231)
Sequence (P37231 whole entry, looked up): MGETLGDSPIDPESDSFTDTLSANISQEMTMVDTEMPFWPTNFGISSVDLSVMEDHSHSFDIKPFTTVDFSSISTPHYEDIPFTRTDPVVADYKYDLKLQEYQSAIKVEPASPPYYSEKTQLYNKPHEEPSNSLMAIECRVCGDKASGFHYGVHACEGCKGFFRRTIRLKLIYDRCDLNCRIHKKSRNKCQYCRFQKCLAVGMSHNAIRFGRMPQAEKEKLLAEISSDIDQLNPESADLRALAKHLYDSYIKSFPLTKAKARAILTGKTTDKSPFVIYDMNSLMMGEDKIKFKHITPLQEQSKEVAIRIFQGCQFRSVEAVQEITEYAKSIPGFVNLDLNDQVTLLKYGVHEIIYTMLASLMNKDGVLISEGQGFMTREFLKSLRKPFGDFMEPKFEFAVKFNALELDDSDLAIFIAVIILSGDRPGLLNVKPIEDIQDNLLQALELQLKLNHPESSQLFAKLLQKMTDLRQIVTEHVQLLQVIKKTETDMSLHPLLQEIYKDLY
Experiment: partial agonism at human PPARgamma receptor – cell-based, luciferase reporter, luminescence, primary screen (AID 504452);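 further: Cos-1 cells carrying PPARgamma and a response element luciferase reporter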
Conditions: cell-based PPARg luciferase reporter, at 5 µM, hits give high values
Entries and their activation (% of partial agonist control)
The response must be a number in % with no trailing unit.

Completed entries (count: 3):
>  <COMPOUND>
COc1ccc(N(CC(=O)N2c3ccccc3CC2C)S(=O)(=O)c2c(C)nn(C)c2C)cc1 (centres undefined)

>  <UNITS_TEXT>
%

>  <TEST_VALUE>
71.5

$$$$
>  <COMPOUND>
CC(C(=O)N1CCN(c2ccccc2)CC1)N1C(=O)C2CC=CCC2C1=O (centres undefined)

>  <UNITS_TEXT>
%

>  <TEST_VALUE>
71.1

$$$$
>  <COMPOUND>
COC(=O)c1ccc(NC(=O)C(=O)c2cn(CC(=O)N3CCOCC3)c3ccccc23)cc1

>  <UNITS_TEXT>
%

>  <TEST_VALUE>
71.1

$$$$

Please find the next compound below.
Please state recorded activation (% of partial agonist control) (tested on Peroxisome proliferator-activated receptor gamma (Homo sapiens) (UniProt P37231)) of O=C1CC(NS(=O)(=O)c2ccc3ccccc3c2)CN1c1ccccc1 (centres undefined)
70.2

* * *

Biological target: Peroxisome proliferator-activated receptor gamma (Homo sapiens)
Assay: partial agonism at human PPARgamma receptor – cell-based, luciferase reporter, luminescence, primary screen (AID 504452);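 further: Cos-1 cells carrying PPARgamma and a response element luciferase reporter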
Settings: cell-based PPARg luciferase reporter, at 5 µM, hits give high values
Category scheme (activation (% of partial agonist control)): low end: < 70%; middle: ≥ 70% and < 90%; high end: ≥ 90%

>  <COMPOUND>
CC(=O)c1cccc(NC(=O)CSc2nc(=O)n(CCN3CCOCC3)c3c2CCCC3)c1

>  <ASSIGNED_LABEL>
middle

$$$$
>  <COMPOUND>
Cc1nc2ccccn2c1/C(O)=C1\C(=O)C(=O)N(CCN2CCOCC2)C1c1ccncc1 (stereo unspecified)

>  <ASSIGNED_LABEL>
low end

$$$$
>  <COMPOUND>
COc1ccccc1NC(=O)C(=O)c1cn(CC(=O)N2CCOCC2)c2ccccc12

>  <ASSIGNED_LABEL>
high end

$$$$
>  <COMPOUND>
Cc1ccc2nc(N3C(=O)C(O)=C(C(=O)c4ccco4)C3c3cccc(O)c3)sc2c1 (stereo unspecified)

>  <ASSIGNED_LABEL>
high end

$$$$
>  <COMPOUND>
COc1ccc(NC(=O)CC2C(=O)Nc3ccccc3N2CC(=O)N2CCCC2)cc1 (stereo unspecified)

>  <ASSIGNED_LABEL>
low end

$$$$
>  <COMPOUND>
Cc1ccccc1NC(=O)CC1C(=O)Nc2ccccc2N1CC(=O)N(C)C1CCS(=O)(=O)C1 (stereo unspecified)

>  <ASSIGNED_LABEL>
high end

$$$$

Please classify: O=C(CN1c2cccc3cccc(c23)S1(=O)=O)N1CCN(c2ccc(F)cc2)CC1
middle

Likewise for O=C(Nc1c(C(=O)Nc2ccc3c(c2)OCCO3)cnn1-c1ccccc1Cl)c1ccco1 ?
high end

Likewise for COc1ccccc1N1C(=O)C2C(c3ccc(F)cc3)NN(C(=O)c3ccc(C)cc3)C2C1=O (stereo unspecified) ?
low end

Likewise for O=C(N[C@@H]1CCC(=O)N(CC[C@H](Oc2ccccc2)c2ccccc2)CC1)OCc1ccccc1 ?
low end

Likewise for O=C(Cn1c(=O)c(=O)n(Cc2ccccc2)c2ccc(Cl)cc21)Nc1cccc(F)c1 ?
low end

Likewise for O=C(COc1cc(F)ccc1[N+](=O)[O-])N1N=C(c2cccs2)CC1c1ccco1 (stereo unspecified) ?
middle

Likewise for CCOc1cc(N2CCOCC2)c(OCC)cc1NC(=O)c1ccc2ccccc2n1 ?
high end

Likewise for CCN(CC)S(=O)(=O)c1ccc(N2CCOCC2)c(NC(=O)C(C)Oc2ccc(F)cc2)c1 (stereo unspecified) ?
low end

Likewise for Nc1ccc(-n2c(N)c(C(=O)NCc3ccc4c(c3)OCO4)c3nc4ccccc4nc32)cc1 ?
low end

Likewise for COc1cccc(NS(=O)(=O)c2ccc3c(c2)C2C=CCC2C(c2ccc(C(=O)O)cc2)N3)c1 (stereo unspecified) ?
middle
